- EXPERIMENTAL DETAILS: Quantum yield measurements versus Acridine Yellow in EtOH
- Format: physicochemical
- APPLIED CONDITIONS: MKCA compound library; quantum yield
PROPERTY LABEL: φ (%)

Answered cases to consult:
[[record]]
compound = "O=C(CCl)Nc1ccc(C2=C3C=CC(N4CCc5ccccc5C4)=[N+]3[B-](F)(F)n3c2ccc3-n2cc(C3CC3)nn2)cc1 [MKCA66-4]"
property_label = "φ (%)"
units_of_measure = "%"
assay_value = 3.33

[[record]]
compound = "CC1CN(C2=[N+]3C(=C(c4ccc(NC(=O)CCl)cc4)c4ccc(-n5cc(CN(C)Cc6ccccc6)nn5)n4[B-]3(F)F)C=C2)CC(C)O1 (stereo not drawn) [MKCA20-18]"
property_label = "φ (%)"
units_of_measure = "%"
assay_value = 2.54

[[record]]
compound = "CC1CN(C2=[N+]3C(=C(c4ccc(NC(=O)CCl)cc4)c4ccc(-n5cc(CO)nn5)n4[B-]3(F)F)C=C2)CC(C)O1 (stereo not drawn) [MKCA20-70]"
property_label = "φ (%)"
units_of_measure = "%"
assay_value = 2.64


[a] CC1CN(C2=[N+]3C(=C(c4ccc(NC(=O)CCl)cc4)c4ccc(-n5cc(CCc6ccccc6)nn5)n4[B-]3(F)F)C=C2)CC(C)O1 (stereo not drawn) [MKCA20-19]
[b] COc1ccc(OC)c(CNC2=[N+]3C(=C(c4ccc(NC(=O)CCl)cc4)c4ccc(-n5cc(CN(C)Cc6ccccc6)nn5)n4[B-]3(F)F)C=C2)c1 [MKCA181-18]
Endpoint returns whichever of a and b has the numerically higher φ (%). Let me know the label of the one you choose.
b
(b: 21.65%, a: 5.32%)

* * *

- EXPERIMENTAL DETAILS: Quantum yield measurements versus Acridine Yellow in EtOH
- Assay type: physicochemical
- APPLIED CONDITIONS: MK library, Table 5; excitation 460 nm
PROPERTY LABEL: φ (quantum yield) (%)

The following compounds have reported results that may help.
[[record]]
compound = "CCCc1cn(-c2ccc3n2[B-](F)(F)[N+]2=C(NCc4cc(F)cc(F)c4)C=CC2=C3c2ccc(N)cc2)nn1"
property_label = "φ (quantum yield)"
assay_value = 1.55

[[record]]
compound = "CCCc1cn(-c2ccc3n2[B-](F)(F)[N+]2=C(N4CC(C)OC(C)C4)C=CC2=C3c2ccc(N)cc2)nn1 (stereo not shown)"
property_label = "φ (quantum yield)"
assay_value = 0.25

[[record]]
compound = "CC(C)Cc1cn(-c2ccc3n2[B-](F)(F)[N+]2=C(N4CCCC4)C=CC2=C3c2ccc(N)cc2)nn1"
property_label = "φ (quantum yield)"
assay_value = 0.33

[[record]]
compound = "CCCCCC(O)c1cn(-c2ccc3n2[B-](F)(F)[N+]2=C(N(C)Cc4ccccc4)C=CC2=C3c2ccc(N)cc2)nn1 (stereo not shown)"
property_label = "φ (quantum yield)"
assay_value = 0.28

[[record]]
compound = "CC1CN(C2=[N+]3C(=C(c4ccc(N)cc4)c4ccc(-n5cc(CO)nn5)n4[B-]3(F)F)C=C2)CC(C)O1 (stereo not shown)"
property_label = "φ (quantum yield)"
assay_value = 0.18


[a] Nc1ccc(C2=C3C=CC(N4CCCC4)=[N+]3[B-](F)(F)n3c2ccc3-n2cc(CC3CCCCC3)nn2)cc1
[b] COc1ccc(OC)c(CNC2=[N+]3C(=C(c4ccc(N)cc4)c4ccc(-n5cc(CC6CCCCC6)nn5)n4[B-]3(F)F)C=C2)c1
# argmax over φ (quantum yield) for candidates a and b Please reply using the label of the selected record.
a
(a: 0.56%, b: 0.33%)
